target: T1, monkey GPC3-His protein (monkey); experiment: ELISA, monkey GPC3-His coated; antibody 1.39 nM
T1 construct: Bought protein; also called monkey GPC3 protein
Catalogue of OD450 nm values

binder	OD450 nm
hAb006LH3L1c (antibody, human IgG1, V domains shown, Humanized F3.38.7, H3+L1c) VH: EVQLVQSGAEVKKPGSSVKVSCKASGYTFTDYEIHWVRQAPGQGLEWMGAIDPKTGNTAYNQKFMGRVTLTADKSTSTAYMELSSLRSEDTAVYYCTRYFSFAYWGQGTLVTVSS VL: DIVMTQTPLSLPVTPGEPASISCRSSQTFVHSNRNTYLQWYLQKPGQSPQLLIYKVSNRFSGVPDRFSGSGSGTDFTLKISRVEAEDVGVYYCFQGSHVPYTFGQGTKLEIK	1.32
hAb007LH1L1c (antibody, human IgG1, V domains shown, Humanized F3.81.19, H1+L1c) VH: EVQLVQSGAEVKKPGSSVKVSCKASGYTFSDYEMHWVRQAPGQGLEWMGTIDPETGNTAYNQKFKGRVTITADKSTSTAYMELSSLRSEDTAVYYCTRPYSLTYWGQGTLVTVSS VL: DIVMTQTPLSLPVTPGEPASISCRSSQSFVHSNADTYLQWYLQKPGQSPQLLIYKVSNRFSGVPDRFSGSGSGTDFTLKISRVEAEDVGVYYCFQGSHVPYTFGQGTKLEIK	1.3
hAb006LH3L1e (antibody, human IgG1, V domains shown, Humanized F3.38.7, H3+L1e) VH: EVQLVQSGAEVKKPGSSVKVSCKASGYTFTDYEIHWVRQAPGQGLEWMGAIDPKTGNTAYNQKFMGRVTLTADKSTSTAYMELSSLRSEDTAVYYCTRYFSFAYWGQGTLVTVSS VL: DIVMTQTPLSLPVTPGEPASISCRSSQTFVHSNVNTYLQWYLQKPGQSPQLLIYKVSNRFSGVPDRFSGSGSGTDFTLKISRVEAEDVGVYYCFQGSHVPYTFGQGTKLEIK	1.07

The measurements presented in this section are drawn from patent US20260116991A1.
